B1: HDV Ribozyme (parent)
chain: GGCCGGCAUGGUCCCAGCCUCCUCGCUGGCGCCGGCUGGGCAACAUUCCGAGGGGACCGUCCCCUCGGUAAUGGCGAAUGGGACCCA

Variants of: B1
TEST PROTOCOL: self-cleavage, relative activity (ratio to wild type); higher = more cleavage; co-transcriptional
PROPERTY LABEL: self-cleavage

INSERT INTO results (mutation_name, reported) VALUES
  ('C22U C32A', 0.117),
  ('G25U G67C', 0.277),
  ('A42U U65A', 0.434),
  ('C21G U47A', 0.0773),
  ('C7G C22U', 0.0898),
  ('C7U C48G', 0.831),
  ('C7G G31C', 0.95),
  ('A43G C58G', 0.72),
  ('A16U G25A', 0.0707),
  ('G35U G81C', 0.133),
  ('G38C C84U', 0.158),
  ('G28U U72G', 0.0554),
  ('U46C A78G', 0.554),
  ('G50C C66U', 0.954),
  ('G39C G53C', 0),
  ('C3A G35C', 0.604),
  ('G34A G74A', 0.0852),
  ('C14A U37C', 0.504),
  ('U9C C30A', 0.458),
  ('C57G C66A', 0.923),
  ('G17C A83C', 0.244),
  ('U27C A45G', 0.511),
  ('C18G G25U', 0.0386),
  ('U9G G81A', 0.8),
  ('U20C C75A', 0.0594),
  ('C15U C61G', 0.898),
  ('G38U U47C', 0.133),
  ('C7U A45G', 0.72),
  ('G28C A43G', 0.0573),
  ('A42G C61A', 0.779),
  ('G28U A77U', 0.0707),
  ('G2C C48U', 0.0923),
  ('U60C C63G', 1.09),
  ('A45C A83G', 0.23),
  ('C3G C41A', 0.217),
  ('G74A G76U', 0.727),
  ('G67C U72G', 0.231),
  ('C49A U69G', 1.33),
  ('C32G A70C', 0.38),
  ('G28U G31U', 0.0923),
  ('G35A A78C', 0.0528),
  ('C30U A42G', 0.156),
  ('G6A U60G', 0.365),
  ('U9A G80U', 0.213),
  ('C30G C41A', 0.0361),
  ('C32G A43U', 0),
  ('A16C U79A', 1.06),
  ('C33U U65C', 0.969),
  ('A16G C32G', 0.145),
  ('G11A G50A', 0.366),
  ('C84G C85U', 0.719),
  ('C49A A83U', 0.719),
  ('C13A G76A', 0.199),
  ('C7U G31U', 0.575),
  ('C30U G74U', 0.131),
  ('U12C G76A', 0.344),
  ('C58G A70U', 0.929),
  ('U9C U79A', 0.831),
  ('G53U C86A', 1.07),
  ('C41A U69G', 0.975),
  ('G67C G76A', 1.11),
  ('G28A A71G', 0.0831),
  ('U23G G39A', 0.17),
  ('C21A U69G', 0.0723);

These entries and their values trace back to the RNAGym collection of RNA variant scans (doi:10.7554/elife.80360).
